Target: T1, MPDZ_10, O75970
T1 sequence (O75970 1624-1722, limits assumed, looked up): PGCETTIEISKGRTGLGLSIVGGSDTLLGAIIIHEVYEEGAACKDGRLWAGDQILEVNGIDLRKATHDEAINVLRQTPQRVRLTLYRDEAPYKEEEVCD
Experiment: holdup assay
Set-up: key: below the threshold = too weak to quantify, mostly under pKd 3.1 to 4
Conditions: plain residues with an end cap or a label only (N-terminal biotin on a linker: ado-ado)
PARAMETER_MEASURED: pKd

BINDER | pKd
FVHPILQSAV [PRKCA, P17252] | below the threshold
TETASVCTKV [SLC23A1, Q9UHI7] | 3.73
EEPEERHTEL [CES2, O00748] | below the threshold
QKNKDKEYYV [NRXN3_rs746444206, Q9Y4C0] | below the threshold

Now, please, on to the next binder.
// pKd lookup, binder = GFGEERESIL [KIDINS220, Q9ULH0] , result: below the threshold
